Hi there, I'd appreciate the recorded IC50 for every entry that follows.
tested_on: purified recombinantly expressed human SSAO (Homo sapiens (Human), UniProt Q16853)
Sequence (Q16853 29-763): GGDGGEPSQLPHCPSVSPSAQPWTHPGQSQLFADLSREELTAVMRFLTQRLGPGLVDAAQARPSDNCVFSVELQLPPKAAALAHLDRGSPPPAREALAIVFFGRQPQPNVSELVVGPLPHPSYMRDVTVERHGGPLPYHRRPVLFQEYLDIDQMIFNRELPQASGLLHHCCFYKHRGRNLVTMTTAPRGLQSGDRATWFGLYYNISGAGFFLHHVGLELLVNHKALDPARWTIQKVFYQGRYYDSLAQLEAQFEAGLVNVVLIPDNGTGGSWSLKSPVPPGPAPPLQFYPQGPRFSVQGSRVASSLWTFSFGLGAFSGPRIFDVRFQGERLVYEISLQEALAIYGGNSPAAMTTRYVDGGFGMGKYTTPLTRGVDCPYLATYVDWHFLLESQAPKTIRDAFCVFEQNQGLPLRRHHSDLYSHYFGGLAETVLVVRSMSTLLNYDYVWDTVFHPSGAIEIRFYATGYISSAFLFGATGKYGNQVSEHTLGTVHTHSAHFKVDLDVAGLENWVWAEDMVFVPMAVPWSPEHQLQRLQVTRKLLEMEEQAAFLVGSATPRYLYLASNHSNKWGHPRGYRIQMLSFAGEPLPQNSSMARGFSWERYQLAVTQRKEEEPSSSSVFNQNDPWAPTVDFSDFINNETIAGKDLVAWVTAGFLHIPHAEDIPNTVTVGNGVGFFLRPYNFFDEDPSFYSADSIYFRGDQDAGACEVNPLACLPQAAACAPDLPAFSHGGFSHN
assay_method_text: SSAO enzyme inhibition assay (HRP-coupled hydrogen peroxide detection or 14C-benzaldehyde detection, benzylamine substrate)
assay_setup: human recombinant SSAO, RT

Cc1ccc(-n2c(-c3cnc(N4CCOCC4)nc3)cc3ccncc32)cc1: 50 to 200 nM

Batch lookup, IC50 per entry.
1. Fc1ccc(-n2c(-c3cnc(C4CC4)nc3)nc3ccncc32)cc1
2. CN1CCN(Cc2cccc(-c3nc4ccncc4n3-c3ccc(Cl)cc3)c2)CC1
3. Cc1nc(N2CCOCC2)ncc1-c1nc2ccncc2n1-c1ccc(F)cc1

Output:
200 to 1200 nM
200 to 1200 nM
50 to 200 nM

Reference source: patent US10428066B2
